System: U2OS
Assay: Multiplex assay against U2OS
Type: toxicity, cell-based
Details: human, 48 h, 10 µM, compound concentration 10 uM, replicate 2
# Lookup of reported Population Pyknosed Nuclei (%) keyed by entry

>  <compound>
CC(/C=C1\SC(=S)N(CCCC(=O)Nc2ccc(C(=O)O)c(O)c2)C1=O)=C\c1ccccc1

>  <Population Pyknosed Nuclei (%)>
2

$$$$
>  <compound>
CN(c1cc(C(F)(F)F)nc(OCCC(=O)O)n1)c1cccc2c1CCC2

>  <Population Pyknosed Nuclei (%)>
3

$$$$
>  <compound>
CC(C)C[C@H](NC(=O)[C@H](Cc1ccccc1)NC(=O)CNC(=O)CNC(=O)[C@@H](N)Cc1ccc(O)cc1)C(=O)O [ENKEPHALIN]

>  <Population Pyknosed Nuclei (%)>
6

$$$$
>  <compound>
CN1C(=O)[C@@H](NC(=O)c2cc3ccccc3[nH]2)N=C(c2ccccc2)c2ccccc21 [DEVAZEPIDE]

>  <Population Pyknosed Nuclei (%)>
24

$$$$
>  <compound>
Cc1ccc(S(=O)(=O)NC2c3ccccc3Oc3ccccc32)cc1

>  <Population Pyknosed Nuclei (%)>
7

$$$$
>  <compound>
Oc1cccc(-c2nc(N3CCOCC3)c3oc4ncccc4c3n2)c1 [PI-103]

>  <Population Pyknosed Nuclei (%)>
47

$$$$
>  <compound>
CN1CCN(Cc2ccc(-c3cnc4[nH]cc(-c5ccc6[nH]ccc6c5)c4c3)cc2)CC1

>  <Population Pyknosed Nuclei (%)>
27

$$$$
>  <compound>
Cc1c(Nc2ccc(S(=O)(=O)N3CCN(C)CC3)cc2F)nc2ccc(-c3cnn(C4CC4)c3)cn2c1=O

>  <Population Pyknosed Nuclei (%)>
3

$$$$
>  <compound>
CC(C)[C@H](CO)Nc1nc(Nc2cccc(Cl)c2)c2ncn(C(C)C)c2n1 [PURVALANOLA]

>  <Population Pyknosed Nuclei (%)>
20

$$$$
>  <compound>
CC(C)c1cc(Nc2nc(N3CCC[C@H](N)C3)ncc2C(N)=O)cc(C(C)C)n1

>  <Population Pyknosed Nuclei (%)>
56

$$$$
>  <compound>
CCCc1cc(C)[nH]c(=O)c1CNC(=O)c1cc(-c2ccc(N3CCN(C(C)C)CC3)nc2)cc2c1cnn2C(C)C

>  <Population Pyknosed Nuclei (%)>
49

$$$$
>  <compound>
C[C@@H](Oc1cc(-n2cnc3ccc(CN4CCN(C)CC4)cc32)sc1C(N)=O)c1ccccc1C(F)(F)F [GSK-461364]

>  <Population Pyknosed Nuclei (%)>
36

$$$$

---

System: Fibroblast
Experiment: Multiplex assay against human fibroblast
Assay type: toxicity, cell-based
Conditions: 24 h, 10 µM, compound concentration 10 uM, replicate 2

>  <compound>
CC(/C=C1\SC(=S)N(CCCC(=O)Nc2ccc(C(=O)O)c(O)c2)C1=O)=C\c1ccccc1

>  <Total Cell Count>
115

$$$$
>  <compound>
Cc1c(Nc2ccc(S(=O)(=O)N3CCN(C)CC3)cc2F)nc2ccc(Nc3cnn(C4CC4)c3)cn2c1=O

>  <Total Cell Count>
73

$$$$
>  <compound>
CCCc1cc(C)[nH]c(=O)c1CNC(=O)c1cc(-c2ccc(N3CCN(C(C)C)CC3)nc2)cc2c1cnn2C(C)C

>  <Total Cell Count>
60

$$$$
>  <compound>
CCCCCNC(=N)N/N=C/c1c[nH]c2ccc(OC)cc12.O=C(O)/C=C\C(=O)O [TEGASEROD MALEATE]

>  <Total Cell Count>
70

$$$$

---

# Lookup of reported Population Hoechst High Intensity Objects (%) keyed by entry
Tested on: HEK-293T
Experiment: Multiplex assay against HEK293T
Assay type: toxicity, cell-based
Conditions: human, 12 h, 10 µM, compound concentration 10 uM, replicate 2
recorded endpoint: Population Hoechst High Intensity Objects (%)

>  <molecule>
CC[C@@H]1C(=O)N(C)c2cnc(Nc3ccc(C(=O)NC4CCN(C)CC4)cc3OC)nc2N1C1CCCC1 [BI-2536]

>  <value>
3

$$$$
>  <molecule>
N#Cc1cccc(C(=O)Nc2cc(-c3ccccc3)nn2-c2ccccc2)c1

>  <value>
5

$$$$
>  <molecule>
CC(C)[C@H](CO)Nc1nc(Nc2cccc(Cl)c2)c2ncn(C(C)C)c2n1 [PURVALANOLA]

>  <value>
7

$$$$
>  <molecule>
CC[C@H](Nc1ncnc2[nH]cnc12)c1nc2cccc(F)c2c(=O)n1-c1ccccc1 [IDELALISIB]

>  <value>
2

$$$$
>  <molecule>
CCCCN(CC)c1nc(C)nc2c1c(C)cn2-c1c(C)cc(C)cc1C.Cl

>  <value>
7

$$$$
>  <molecule>
Cl.Cn1c2c(c3ccc(Cl)c(Cl)c31)C(C#N)C1(CCNCC1)NC2=O (stereo not drawn)

>  <value>
4

$$$$
>  <molecule>
N#CCNC(=O)c1ccc(-c2ccnc(Nc3ccc(N4CCOCC4)cc3)n2)cc1 [MOMELOTINIB]

>  <value>
5

$$$$
>  <molecule>
CC(/C=C1\SC(=S)N(CCCC(=O)Nc2ccc(C(=O)O)c(O)c2)C1=O)=C\c1ccccc1

>  <value>
1

$$$$
>  <molecule>
CCCCCNC(=N)N/N=C/c1c[nH]c2ccc(OC)cc12.O=C(O)/C=C\C(=O)O [TEGASEROD MALEATE]

>  <value>
29

$$$$
>  <molecule>
CCOC(=O)CCNc1cc(N2CCc3ccccc3CC2)nc(-c2ccccn2)n1

>  <value>
4

$$$$
>  <molecule>
Cc1c(Nc2ccc(S(=O)(=O)N3CCN(C)CC3)cc2F)nc2ccc(Nc3cnn(C4CC4)c3)cn2c1=O

>  <value>
2

$$$$
>  <molecule>
Cc1ccc(NC(=O)Nc2cc(C(F)(F)F)ccc2F)cc1Nc1ccc2c(c1)NC(=O)/C2=C\c1ccc[nH]1

>  <value>
2

$$$$
>  <molecule>
CC(Cc1ccc(O)c(O)c1)C(C)Cc1ccc(O)c(O)c1 (stereo not drawn) [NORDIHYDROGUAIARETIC ACID]

>  <value>
4

$$$$
>  <molecule>
c1ccc(-c2oc3ncnc(NC[C@@H]4CCCO4)c3c2-c2ccccc2)cc1

>  <value>
7

$$$$
>  <molecule>
CCOc1ccn(-c2ccc(F)cc2)c(=O)c1C(=O)Nc1ccc(Oc2ccnc(N)c2Cl)c(F)c1 [BMS-777607]

>  <value>
2

$$$$
>  <molecule>
CC[C@@]1(O)C(=O)OCc2c1cc1n(c2=O)Cc2cc3ccccc3nc2-1 [CAMPTOTHECIN]

>  <value>
2

$$$$
>  <molecule>
Oc1cccc(-c2nc(N3CCOCC3)c3oc4ncccc4c3n2)c1 [PI-103]

>  <value>
6

$$$$
>  <molecule>
CCCc1cc(C)[nH]c(=O)c1CNC(=O)c1cc(-c2ccc(N3CCN(C(C)C)CC3)nc2)cc2c1cnn2C(C)C

>  <value>
8

$$$$

---

System: Fibroblast
Assay: Multiplex assay against human fibroblast
Format: toxicity, cell-based
Conditions: 12 h, 10 µM, compound concentration 10 uM, replicate 2
class 1 if Population Normal (%) is below 90%. class 0 if not; exact matches included in class 0.

>  <molecule>
CCCCCNC(=N)N/N=C/c1c[nH]c2ccc(OC)cc12.O=C(O)/C=C\C(=O)O [TEGASEROD MALEATE]

>  <class>
class 1

$$$$
>  <molecule>
CN(c1cc(C(F)(F)F)nc(OCCC(=O)O)n1)c1cccc2c1CCC2

>  <class>
class 1

$$$$
>  <molecule>
CC(C)c1cc(Nc2nc(N3CCC[C@H](N)C3)ncc2C(N)=O)cc(C(C)C)n1

>  <class>
class 1

$$$$
>  <molecule>
CCCCN(CC)c1nc(C)nc2c1c(C)cn2-c1c(C)cc(C)cc1C.Cl

>  <class>
class 0

$$$$
>  <molecule>
CCOc1ccn(-c2ccc(F)cc2)c(=O)c1C(=O)Nc1ccc(Oc2ccnc(N)c2Cl)c(F)c1

>  <class>
class 1

$$$$
>  <molecule>
Oc1cccc(-c2nc(N3CCOCC3)c3oc4ncccc4c3n2)c1

>  <class>
class 0

$$$$
>  <molecule>
CCOC(=O)CCNc1cc(N2CCc3ccccc3CC2)nc(-c2ccccn2)n1

>  <class>
class 1

$$$$

---

Test system: Fibroblast
Assay: Multiplex assay against human fibroblast
Assay type: toxicity, cell-based
Conditions: 12 h, 1 µM, compound concentration 1 uM, replicate 1
Classify by measured Population Apoptotic (%): Y if it is equal to or exceeds 60%, N if it is smaller.

>  <molecule>
CN1C(=O)[C@@H](NC(=O)c2cc3ccccc3[nH]2)N=C(c2ccccc2)c2ccccc21 [DEVAZEPIDE]

>  <class>
Y

$$$$
>  <molecule>
Oc1cccc(-c2nc(N3CCOCC3)c3oc4ncccc4c3n2)c1

>  <class>
Y

$$$$
>  <molecule>
NC(=O)c1ccc2nc(-c3ccc(C4(N)CCC4)cc3)c(-c3ccccc3)n2n1

>  <class>
Y

$$$$
>  <molecule>
CC[C@@H]1C(=O)N(C)c2cnc(Nc3ccc(C(=O)NC4CCN(C)CC4)cc3OC)nc2N1C1CCCC1

>  <class>
Y

$$$$
>  <molecule>
CCCCCNC(=N)N/N=C/c1c[nH]c2ccc(OC)cc12.O=C(O)/C=C\C(=O)O [TEGASEROD MALEATE]

>  <class>
Y

$$$$
>  <molecule>
CN(c1cc(C(F)(F)F)nc(OCCC(=O)O)n1)c1cccc2c1CCC2

>  <class>
Y

$$$$
>  <molecule>
CC(C)C[C@H](NC(=O)[C@H](Cc1ccccc1)NC(=O)CNC(=O)CNC(=O)[C@@H](N)Cc1ccc(O)cc1)C(=O)O

>  <class>
Y

$$$$
>  <molecule>
Cl.Cn1c2c(c3ccc(Cl)c(Cl)c31)C(C#N)C1(CCNCC1)NC2=O (centres undefined)

>  <class>
Y

$$$$
>  <molecule>
CCOc1ccn(-c2ccc(F)cc2)c(=O)c1C(=O)Nc1ccc(Oc2ccnc(N)c2Cl)c(F)c1

>  <class>
Y

$$$$
>  <molecule>
Cc1c(Nc2ccc(S(=O)(=O)N3CCN(C)CC3)cc2F)nc2ccc(Nc3cnn(C4CC4)c3)cn2c1=O

>  <class>
Y

$$$$
>  <molecule>
Cc1c(P(=S)(c2ccccc2)c2ccccc2)n2ccccc2[n+]1C/C=C/c1ccccc1.[Br-]

>  <class>
Y

$$$$
>  <molecule>
Cc1ccc(NC(=O)Nc2cc(C(F)(F)F)ccc2F)cc1Nc1ccc2c(c1)NC(=O)/C2=C\c1ccc[nH]1

>  <class>
N

$$$$
>  <molecule>
N#Cc1cccc(C(=O)Nc2cc(-c3ccccc3)nn2-c2ccccc2)c1

>  <class>
Y

$$$$
>  <molecule>
CCCc1cc(C)[nH]c(=O)c1CNC(=O)c1cc(-c2ccc(N3CCN(C(C)C)CC3)nc2)cc2c1cnn2C(C)C

>  <class>
Y

$$$$
>  <molecule>
CC(C)c1cc(Nc2nc(N3CCC[C@H](N)C3)ncc2C(N)=O)cc(C(C)C)n1

>  <class>
N

$$$$
>  <molecule>
C=CC(=O)Nc1cc(-n2c(=O)ccc3cnc4ccc(-c5ccc(NS(C)(=O)=O)cc5)cc4c32)ccc1C

>  <class>
N

$$$$
>  <molecule>
Cc1c(Nc2ccc(S(=O)(=O)N3CCN(C)CC3)cc2F)nc2ccc(-c3cnn(C4CC4)c3)cn2c1=O

>  <class>
Y

$$$$
